All values here come from PubChem BioAssay (EPA / NIEHS).

Read-out: Nuclear factor NF-kappa-B p105 subunit (Homo sapiens)
ASSAY EXPLANATION: LTEA_HepaRG_NFKB1: Life Technologies and Expression Analysis (LTEA) Assay for Nuclear Factor Kappa B Subunit 1 (NFKB1) using HepaRG (AID 2283521);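 also: differentiated human HepaRG liver cells in serum-free induction medium; TaqMan qRT-PCR transcript normalised to ACTB GAPDH and POLR2A housekeeping genes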
CONDITION DESCRIPTION: mRNA level, 48 h; actives raise or lower the signal
Active and inactive are the calls of the source. The calls were made as follows: active = hit-call score of the fitted dose curve at least 0.9, where 1 is the maximum; inactive = score below 0.9.
Output constraint: value belongs to true for active, false for inactive

CC(C)(C)c1ccccc1O    false

q: Can you look up the reported call for OCCN(CCO)CCO for me?
a: false

q: Similarly, CC(C)O.CC(C)O.OCCN(CCO)CCO.OCCN(CCO)CCO.[Ti] ?
a: false

* * *

ASSAY EXPLANATION: ATG_ISRE_CIS: Attagene CIS-FACTORIAL HepG2 Assay for human Interferon Regulatory Factor 1 (IRF1) binding to an Interferon-Stimulated Response Element (ISRE) (AID 2282948)
CONDITION DESCRIPTION: HepG2 ISRE cis-reporter (Attagene), mRNA transcription readout; actives raise or lower the signal
Active and inactive are the calls of the source. The calls were made as follows: active = hit-call score of the fitted dose curve at least 0.9, where 1 is the maximum; inactive = score below 0.9.
ASSAY ENDPOINT: AC50

Record excerpt, results attached:
Oc1c(Br)cc(Br)cc1Br    inactive
N#Cc1ccccc1Cl    inactive
Cc1cc(C)cc(C)c1    inactive
CC(C)(c1ccccc1)c1cc(-n2nc3ccccc3n2)c(O)c(C(C)(C)c2ccccc2)c1    inactive
CC(=Cc1ccccc1)[N+](=O)[O-]    7.14 µM (active)
CC(=O)CN(CC(C)=O)N=O    inactive
O=C(NC(=O)c1c(F)cccc1F)Nc1cc(Cl)c(F)c(Cl)c1F    inactive
CCOC(=O)CC(=O)CCl    31.2 µM (active)

q: Value lookup for AC50; key = Cc1cc(Cl)ccc1O
a: inactive

q: Try this compound too: CCCCCCCCCCCCc1cccc(S(=O)(=O)O)c1
a: inactive

q: # repeat for Cc1cccc(OP(=O)(Oc2cccc(C)c2)Oc2cccc(C)c2)c1
a: inactive

q: What do we get for CN(C1CCCCC1)C1CCCCC1 ?
a: inactive

q: Then O=[N+]([O-])c1cccc2ccccc12 ?
a: inactive

q: Subsequent entry: O=CCCl
a: 51.9 µM (active)

* * *

Read-out: Urokinase-type plasminogen activator receptor (uPAR), PLAUR (gene 5329)
ASSAY EXPLANATION: BSK_BE3C_uPAR: BioMAP Diversity Plus: BE3C Assay for Urokinase-type plasminogen activator receptor (uPAR) Biomarker Activity (AID 2283039)
CONDITION DESCRIPTION: primary human bronchial epithelial cells; actives raise or lower the signal
Description: BSK_BE3C is a cell-based, multiplexed-readout assay that uses bronchial epithelial cell, a human lung primary cell, with measurements taken at 24 hours after chemical dosing in a 96-well plate.BSK_BE3CAR is an assay component measured in the BSK_BE3C assay. It measures uPAR antibody related to regulation of gene expression using ELISA technology.Data from the assay component BSK_BE3CAR was analyzed into 1 assay endpoint. […]
The source made the active and inactive calls. How the source made its calls: active means hit-call score of the fitted dose curve at least 0.9, where 1 is the maximum; inactive means score below 0.9.
ASSAY ENDPOINT: AC50

Solved cases below.
CCOC(=O)C(SP(=S)(OC)OC)c1ccccc1 (stereo not drawn)    inactive
O=C(O)COc1cc(Cl)c(Cl)cc1Cl    inactive
O=C(O)C1(c2ccc3c(c2)OC[C@H](Cc2ccc(-c4ccccc4)cc2)[C@H]3O)CCCC1    14.1 µM (active)
CCOP(=O)(OCC)SCCSCC    inactive
CCOP(=S)(OCC)OP(=S)(OCC)OCC    inactive
CCC(C)(C#N)N=NC(C)(C#N)CC (stereo not drawn)    inactive
Nc1ccc(N)cc1    inactive
CCN(CC)C(=O)C(Cl)=C(C)OP(=O)(OC)OC    inactive

q: Quick one: AC50 for CC(C)(COCC1CO1)COCC1CO1 (stereo not drawn) ?
a: inactive

q: Further, for O=[N+]([O-])c1cccc2ccccc12 ?
a: inactive

q: How about this compound: Cc1cc(Cl)ccc1OC(C)C(=O)O (stereo not drawn)
a: inactive

q: Queued: CC(C)=CC1C(C(=O)OCc2cccc(Oc3ccccc3)c2)C1(C)C (stereo not drawn)
a: inactive

q: Then O=S(=O)(c1ccc(Cl)cc1)c1cc(Cl)c(Cl)cc1Cl ?
a: inactive

* * *

SYSTEM TESTED: Transcriptional activator Myb (Homo sapiens) (UniProt P10242)
Sequence (P10242 whole entry, looked up): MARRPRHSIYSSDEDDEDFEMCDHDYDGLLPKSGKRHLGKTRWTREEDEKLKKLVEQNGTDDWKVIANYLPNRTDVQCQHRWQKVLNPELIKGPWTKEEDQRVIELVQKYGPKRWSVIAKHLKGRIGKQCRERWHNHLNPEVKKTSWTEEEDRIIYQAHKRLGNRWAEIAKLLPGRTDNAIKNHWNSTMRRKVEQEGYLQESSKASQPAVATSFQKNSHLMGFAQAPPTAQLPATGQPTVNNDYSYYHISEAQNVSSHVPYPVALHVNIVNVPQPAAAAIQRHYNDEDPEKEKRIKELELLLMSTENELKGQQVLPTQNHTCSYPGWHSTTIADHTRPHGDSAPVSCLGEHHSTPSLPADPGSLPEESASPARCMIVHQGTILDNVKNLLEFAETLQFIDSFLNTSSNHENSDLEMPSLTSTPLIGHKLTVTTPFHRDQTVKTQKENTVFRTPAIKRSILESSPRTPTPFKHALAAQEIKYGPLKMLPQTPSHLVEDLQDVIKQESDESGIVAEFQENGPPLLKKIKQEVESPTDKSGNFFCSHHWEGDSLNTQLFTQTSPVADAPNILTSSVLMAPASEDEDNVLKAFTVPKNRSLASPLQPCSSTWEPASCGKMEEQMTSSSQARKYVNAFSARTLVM
ASSAY EXPLANATION: ATG_Myb_CIS: Attagene CIS-FACTORIAL HepG2 Assay for human Myeloblastosis (Myb) Proto-Oncogene Transcription Factor (AID 2282986)
CONDITION DESCRIPTION: HepG2 Attagene CIS-FACTORIAL Myb reporter transcription; actives raise or lower the signal
Description: ATG_CIS is a cell-based, multiplexed-readout assay that uses HepG2, a human liver cell line, with measurements taken at 24 hours after chemical dosing in a 24-well plate.ATG_Myb_CIS is one of 52 assay component(s) measured or calculated from the ATG_CIS assay. […] This assay endpoint, ATG_Myb_CIS, was analyzed with bidirectional fitting relative to DMSO as the negative control and baseline of activity. […]
Calls of active or inactive are those of the source. The calls were made as follows: active = hit-call score of the fitted dose curve at least 0.9, where 1 is the maximum; inactive = score below 0.9.
ASSAY ENDPOINT: outcome

// worked examples, outcome included
FC(F)OCC(F)(F)C(F)(F)F    inactive
CCCCCCCCCCCCOS(=O)(=O)O    inactive
CC(=O)CN(CC(C)=O)N=O    inactive
O=C(O)c1cc(I)cc(I)c1I    inactive
Cc1cccc(N=Nc2ccc(N(C)C)cc2)c1    inactive

Now consider the entry below.
q: // query outcome value for entry CCOC(=O)CCN(SN(C)C(=O)Oc1cccc2c1OC(C)(C)C2)C(C)C
a: inactive

* * *

ASSAY EXPLANATION: ATG_PPRE_CIS: Attagene CIS-FACTORIAL HepG2 Assay for human Peroxisome Proliferator-activated Response Element (PPRE) (AID 2282958)
CONDITION DESCRIPTION: HepG2 PPRE cis-element reporter, Attagene transcription factor profiling; actives raise or lower the signal
The source made the active and inactive calls. The calls were made as follows: active = hit-call score of the fitted dose curve at least 0.9, where 1 is the maximum; inactive = score below 0.9.
Answer with one of the outcomes given here: 1 (yes) (active), 0 (no) (inactive)

Examples from the recorded data:
CN(C)CCN(C)C    0 (no)
CNC(=O)N(C)c1nc2ccccc2s1    0 (no)
BrCc1ccc(Br)cc1    0 (no)
CCCCCCCCCCCCBr    0 (no)
O=C=Nc1ccc(Cl)cc1    0 (no)
ClCCCCl    0 (no)
CC[N+](CC)(CC)CC    0 (no)
N#Cc1ccccc1N    0 (no)

q: How did this test come out for CCCCCCCCCCBr ?
a: 0 (no)

q: Repeat for the following compound: CCCSP(=S)(OCC)Oc1ccc(SC)cc1 (stereo not given)
a: 0 (no)

q: Now this one: Brc1ccc(Oc2c(Br)cc(Br)cc2Br)c(Br)c1
a: 0 (no)

q: Also check CCN(CCO)CCO
a: 0 (no)

q: Input O=C(NC(=O)c1c(F)cccc1F)Nc1cc(Cl)c(F)c(Cl)c1F
a: 0 (no)

q: And for Cc1cc(C(F)(C(F)(F)F)C(F)(F)F)ccc1NC(=O)c1cccc(I)c1C(=O)NC(C)(C)CS(C)(=O)=O ?
a: 0 (no)

* * *

ASSAY EXPLANATION: ATG_NF_kB_CIS: Attagene CIS-FACTORIAL HepG2 Assay for human Nuclear Factor Kappa B (NF-kB) (AID 2282991)
CONDITION DESCRIPTION: HepG2 Attagene cis-factorial NF-kB reporter mRNA; actives raise or lower the signal
Calls of active or inactive are those of the source. How the source made its calls: active means hit-call score of the fitted dose curve at least 0.9, where 1 is the maximum; inactive means score below 0.9.
Respond with a class label; see active, inactive

CC(=O)CN(CC(C)=O)N=O    inactive
CNC(=O)CSP(=O)(OC)OC    inactive
C=CCN=C=S    inactive
C=CCOC(N)=O    inactive
CC[N+](CC)(CC)CC    inactive

q: State the result this test recorded for CCCCCCCCCCCCc1cccc(S(=O)(=O)O)c1 .
a: inactive

q: Next compound: CC(C)[C@@H](Nc1ccc(C(F)(F)F)cc1Cl)C(=O)OC(C#N)c1cccc(Oc2ccccc2)c1 (stereo partly drawn)
a: inactive

q: Do the same for O=S1OC[C@@H]2[C@H](CO1)[C@]1(Cl)C(Cl)=C(Cl)[C@@]2(Cl)C1(Cl)Cl (stereo partly drawn) please
a: inactive

q: # repeat for C=C(C)C(=O)OCC(CC)CCCC (stereo not drawn)
a: inactive

q: Try the compound O=C(O)c1cc(I)cc(I)c1I
a: inactive

q: Try the compound CC(C)[C@H](C(=O)OC(C#N)c1cccc(Oc2ccccc2)c1)c1ccc(OC(F)F)cc1 (stereo partly drawn)
a: inactive

q: Same for CC(C)(C)c1ccccc1O
a: active

* * *

ASSAY EXPLANATION: ATG_MRE_CIS: Attagene CIS-FACTORIAL HepG2 Assay for human Metal Responsive Element (MRE) (AID 2282954)
CONDITION DESCRIPTION: HepG2 MRE cis-reporter transcription, Attagene multiplex; actives raise or lower the signal
The source made the active and inactive calls. How the source made its calls: active means hit-call score of the fitted dose curve at least 0.9, where 1 is the maximum; inactive means score below 0.9.
ASSAY ENDPOINT: AC50

Worked cases, answers included:
C=CC(=O)[O][Sn]([CH2]CCC)([CH2]CCC)[CH2]CCC    0.412 µM (active)
CC(c1ccccc1)(c1ccc(O)cc1)c1ccc(O)cc1    16.3 µM (active)
COc1ccccc1N    inactive
O=[N+]([O-])c1ccc(Cl)c([N+](=O)[O-])c1    inactive

Let's switch to this compound now.
q: Please report the recorded AC50 for O=S(=O)(F)C(F)(F)C(F)(F)C(F)(F)C(F)(F)F .
a: inactive
